Assign TGI to each entry below.
Test system: COLO 205 colon
Assay: NCI tumour cell line growth inhibition, 48 h

Example cases with answers are listed next.
compound | studySystem | TGI
COC(=O)c1ccc(=O)c2nc3/c(=C/O)c(O)cc(=O)c3[nH]c12 | COLO 205 colon | > 100 µM
CC(CN)[C@@H]1CC[C@]2(CO)CC[C@]3(C)[C@H](CC[C@@H]4[C@@]5(C)CCC(NCCO)C(C)(C)[C@@H]5CC[C@]43C)[C@@H]12 (some centres undefined) | COLO 205 colon | 3.55 µM
N#CC1C(=N)Cc2ccccc2-c2ccccc21 (centres undefined) | COLO 205 colon | 20.9 µM
COc1cc(-c2oc3c(OC)c(OC)cc(O)c3c(=O)c2OC)ccc1O | COLO 205 colon | > 100 µM
Cc1ccc(NS(=O)(=O)c2cc(C(C)(C)C)ccc2OCCOCCOCCOc2ccc(C(C)(C)C)cc2S(=O)(=O)Nc2ccc(C)cc2)cc1 | COLO 205 colon | > 100 µM

Okay, here is my list. What is TGI for each of these?
1. COC1(OC)N=C(N)C2(C#N)C(C)CC(=O)N(N(C)C)C12C#N (centres undefined)
2. COc1cccc(NCC(=O)Nn2c(-c3ccccc3)nc3ccccc3c2=O)c1

["> 100 µM", "> 100 µM"]

Provide TGI for all items below, preserving their order.
1. Cc1cc(C)c2c(n1)S(=O)(=O)N(CCCN1CCN(c3cccc(C(F)(F)F)c3)CC1)/C(=C(\O)c1ccccc1)C2=O
2. Cn1c(-c2csc(-c3ccc(Cl)cc3)n2)n[nH]c1=S

["14.7 µM", "> 100 µM"]

====

System: TK-10 renal
Assay: NCI tumour cell line growth inhibition, 48 h
I'd appreciate it if you could supply TGI values for the items below.
Give bare numbers, in µM.

Here is how some molecules turned out for TGI.
molecule | readingUnit | TGI
O=C1CC(Br)c2c(Cl)sc(Cl)c21 (stereo not drawn) | µM | 7.3
CCOC(=O)c1c(C)n(Cc2ccccc2)c2c1cc(O)c1[nH]c3c(c12)CCCC3 | µM | 23.6

I'm hoping you can list TGI for every molecule here, please.
1. C[n+]1c2ccccc2c(CNC(CCC(N)=O)C(=O)O)c2ccccc21 (stereo not drawn)
2. COC(=O)[C@]12CC[C@@H](C)[C@H](C)[C@@H]1C1=CC[C@@H]3[C@@]4(C)C(C=O)=C[C@@](C)(COC(C)=O)[C@@H]4[C@H](O)C[C@@]3(C)[C@]1(C)CC2

[5.68, 8.77]

====

Record: GI50 reported on U251 CNS.

molecule | valueMeasured
NC1=NC(c2ccccc2)N=C(Nc2ccccc2)N1 (stereo not given) | 42.1 µM
COc1ccc2nc(NCCCNCCO)c3sc4ccc(F)cc4c(=O)c3c2c1 | 1.62 µM
C=C(CNCCc1ccc(O)cc1)[C@@H]1CC[C@]2(CO)CC[C@]3(C)[C@H](CC[C@@H]4[C@@]5(C)CCC(=O)C(C)(C)[C@@H]5CC[C@]43C)[C@@H]12 | 1.56 µM

Please state GI50 for every molecule in the list that follows.
1. O=C1/C(=C/c2ccccc2)SC(=Nc2ccccc2)N1Nc1ccccc1
2. COC(=O)c1ccc(=O)c2nc3/c(=C/O)c(O)cc(=O)c3[nH]c12

["12.9 µM", "0.176 µM"]

====

System: HOP-92 NSCLC
Assay: NCI tumour cell line growth inhibition, 48 h
*1 amine or outer side, *2 acyl side, *3 side chain or, on linkers, in order; H or OH if unused. Where a SMILES comes first, the peptide text is derived from it. [ ]: non-standard residue; d: D form. X38 = CSCCCC(N[*:1])C(=O)[*:2]
propertyMeasured: TGI

Solved cases (2 shown):
molecule | studySystem | TGI
C=CCNC1=C(C(=O)OCC)C(=O)CO1 | HOP-92 NSCLC | > 100 µM
COc1ccc(C(=O)N2CCN(c3ccc4c(c3)OCC(=O)N4)CC2)cc1 | HOP-92 NSCLC | > 100 µM

Quick one: give me TGI for each item below, same order please.
1. CCCn1cnc2c(NN=O)ncnc21
2. C[C@@]12CC[C@H]3[C@@H]4CCC(=O)N[C@@]4(C)CC[C@@H]3[C@@]1(C)CC[C@H](OC(=O)Cc1ccc(N(CCCl)CCCl)cc1)C2
3. Cc1cc(S(=O)(=O)Nc2nc3ccsc3c(=O)n2Cc2ccco2)c(S)cc1Cl
4. NC1=NC(c2ccccc2)N=C(Nc2ccccc2)N1 (configuration not stated)
5. NC(=O)N/N=C(\Cc1nc2ccc(C(=O)c3ccccc3)cc2[nH]c1=O)C(=O)Nc1ccc(Br)cc1
6. Nc1nc2ccc([C@@H]3Nc4ccc5[nH]ncc5c4[C@H]4[C@H]5CCC(C5)[C@H]43)cc2s1

1. > 100 µM
2. 35.3 µM
3. > 100 µM
4. > 100 µM
5. > 100 µM
6. 11.8 µM

Hi there! I need TGI for each item below, if you can.
1. O=[N+]([O-])c1ccc(Cl)cc1C1ON=C(c2ccccc2)N1C12CC3CC(CC(C3)C1)C2 (configuration not stated)
2. COC1(OC)N=C(N)C2(C#N)C(C)CC(=O)N(N(C)C)C12C#N (configuration not stated)

1: > 100 µM; 2: > 100 µM

For each listed entry, give its TGI.
1. NC1CC2C3CCC2C1C3=O (configuration not stated)
2. CSCCCC(NC(=O)CNC(=O)C1CCCN1C(=O)C(Cc1ccc(O)cc1)NC(=O)C(Cc1ccccc1)NC(=O)C(CCCN=C(N)N)NC(=O)C(CC(=O)O)NC(=O)C1CCCN1C(=O)C(CC(=O)O)NC(=O)C1CCCN1C(=O)C1CCCN1C(=O)CN)C(N)=O (configuration not stated) (H-GPPDPDRFYPG[X38]-NH2; configuration not given here)
3. CCOC(=O)/C=C1\SC(=Nc2ccc(C#N)cc2)N(CCN2C(=O)/C(=C/C(=O)OCC)SC2=Nc2ccc(C#N)cc2)C1=O
4. CS(=O)(=O)N1CCN(Cc2cc3nc(-c4cccc5[nH]ncc45)nc(N4CCOCC4)c3s2)CC1 (tested in a mixture with another compound)
5. O=C1/C(=C/c2ccccc2)SC(=Nc2ccccc2)N1Nc1ccccc1
6. CC(=O)NNc1nc(C)c(C(/C=C/c2ccc(Cl)cc2)=N\NS(=O)(=O)c2ccc(C)cc2)s1
7. CC[N+](CC)=c1ccc2nc3c(cc(NCc4ccccc4)c4ccccc43)oc-2c1

["> 100 µM", "> 50 µM", "36.5 µM", "0.829 µM", "42.2 µM", "> 100 µM", "1.33 µM"]

====

Tested on: HOP-92 NSCLC
Assay: NCI tumour cell line growth inhibition, 48 h; in the data active means GI50 below about 0.43 µM; inactive means the rest
Write down one outcome, taken from true (1) for active, false (0) for inactive

The following molecules have reported results that may help.
molecule | qualitativeLabel
CN(C)c1ccc(/C=C/c2sc3ccc4ccccc4c3[n+]2C)cc1 | false (0)
CC(C)(C)OC(=O)NCCCCCCCCn1c2c(c3ccccc3c1=O)C(=O)c1ccccc1-2 | false (0)
Nc1ccc(C#Cc2cncnc2Nc2ccc(OCc3cccc(F)c3)c(Cl)c2)cc1 | false (0)
Cc1ccc(N=C2CSc3nnc(-c4csc5c4CCCC5)n3N2)cc1 | false (0)
CN1CCN(CC(=O)Nc2ccc3ncnc(Nc4ccc(Oc5cccc(C(F)(F)F)c5)c(Cl)c4)c3c2)CC1 | false (0)

Hi, sorry to bother you, what did the test record for NC1=NC(c2ccccc2)N=C(Nc2ccccc2)N1 (centres undefined) ?
false (0)

Same for C/C=C(\C)C(=O)O[C@@H]1C(O)[C@H]2OC(COC(=O)CCC(=O)CCCCCC[C@H](CCCCC)O[C@@H]3OC(C)[C@H](OC(C)=O)C(O)[C@H]3O2)[C@H]1OC(=O)/C=C/c1ccccc1 (some centres undefined)
true (1)

O=C1C(Cl)=C(Nc2ccc3cn[nH]c3c2)C(=O)c2ccccc21 ?
false (0)

Input Cn1ccc(=Nc2ccc(NC(=O)c3ccc(N=c4ccn(C)c5ccc([N+](=O)[O-])cc45)cc3)cc2)cc1
false (0)

Proceed to C=C1C(=O)O[C@H]2[C@H]1CC/C(COC(=O)C(=O)c1c[nH]c3ccc(OC)cc13)=C\CC[C@@]1(C)O[C@@H]21
false (0)

// query: COC(=O)c1c2c(c(C)[n+]([O-])c1C)C(=O)C=C(NCc1cccc(OC)c1)C2=O
false (0)

====

System: A549 NSCLC
Assay: NCI tumour cell line growth inhibition, 48 h
propertyMeasured: TGI

For orientation, consider the following solved cases.
molecule | TGI
CCCCCCCCCCCCCCCCCCNc1ccn(C2OC(COP(=O)(O)O)C(O)C2O)c(=O)n1 (configuration not stated) | > 100 µM
N/N=C1\c2ccccc2C2/C(=N\N)c3ccccc3C12 (configuration not stated) | > 100 µM

For every item in the list below, what is its measured TGI?
1. CCOC(=O)CCC(C(=O)OCC)n1nc2ccc(Nc3c(C)[n+]([O-])c4cc(Cl)ccc4[n+]3[O-])cc2n1 (configuration not stated)
2. Nc1ccn([C@H]2C[C@@H](O)[C@@H](CO)S2)c(=O)n1
3. CCc1cccc(CC)c1NC(=S)NC(=O)c1ccc(Br)cc1
4. COC(=O)[C@H]1[C@H](C(=O)OC)[C@@H](C)c2c(ccc3c2[nH]c2ccccc23)[C@@H]1C
5. CCSc1nc2sc(C)c(C)c2c(=O)n1-c1ccc(C(=O)O)cc1
6. O=C1C=CC(=O)C1(Br)Br

1: > 100 µM; 2: > 100 µM; 3: > 100 µM; 4: > 100 µM; 5: > 100 µM; 6: 31.7 µM

Hi! Can you tell me TGI for each of these molecules?
1. CC(CN)[C@@H]1CC[C@]2(CO)CC[C@]3(C)[C@H](CC[C@@H]4[C@@]5(C)CCC(NCCO)C(C)(C)[C@@H]5CC[C@]43C)[C@@H]12 (some centres not stated)
2. NC(=O)c1csc(C2C=CC(CO)O2)n1 (configuration not stated)
3. CCN1/C(=C/c2ccc3ccccc3[n+]2CC)C=Cc2ccccc21
4. N#CC1C(=N)Cc2ccccc2-c2ccccc21 (configuration not stated)
5. Cc1ccc(S(=O)(=O)Oc2ccc3c4c(c(=O)oc3c2)CCCCC4)cc1
6. C=C1C(=O)O[C@H]2[C@H]1CC/C(COC(=O)C(=O)c1c[nH]c3ccc(OC)cc13)=C\CC[C@@]1(C)O[C@@H]21
7. O=C1/C(=C/c2ccccc2)SC(=Nc2ccccc2)N1Nc1ccccc1

3.08 µM
> 100 µM
17.1 µM
> 100 µM
> 100 µM
17.3 µM
> 100 µM

Could you report TGI for every entry in the following list?
1. COc1c2ccccc2c(O)c2c(=O)c(C(=O)O)cn(C)c12
2. C=CCN1C(=O)/C(=C/c2ccc(C)cc2)N=C1SC/C=C/C
3. Nc1ccc(C#Cc2cncnc2Nc2ccc(OCc3cccc(F)c3)c(Cl)c2)cc1
4. C=C(CN1CCN(c2cccc(C(F)(F)F)c2)CC1)c1ccc(C(=O)Nc2ccccc2N)cc1
5. O=[N+]([O-])c1ccc(/C=C/c2ccc(N=Nc3ccc(/C=C/c4ccc([N+](=O)[O-])cc4S(=O)(=O)O)c(S(=O)(=O)O)c3)cc2S(=O)(=O)O)c(S(=O)(=O)O)c1

["> 100 µM", "> 100 µM", "> 25 µM", "> 27.3 µM", "> 100 µM"]

Please state, for each entry, its recorded TGI.
1. O=C1CC2CCCCC2=C1O (configuration not stated)
2. NC(=O)c1[nH]nc(C2OC(CO)C(O)C2O)c1O (configuration not stated)
3. CC(C)(C)OC(=O)NCCCCCCCCn1c2c(c3ccccc3c1=O)C(=O)c1ccccc1-2
4. C=C(C)CCC1CCCCC(CN(C)C)C1=O (configuration not stated)
5. Cc1ccc(S(=O)(=O)N2CCSCCSCCN(S(=O)(=O)c3ccc(C)cc3)CCN(S(=O)(=O)c3ccc(C)cc3)CC2)cc1

> 100 µM
289 µM
> 50 µM
> 100 µM
> 100 µM

Provide reported TGI for each item, in the same order as listed.
1. N#C/C(=C\c1ccc(Br)cc1)n1nnc2cccc(F)c21
2. Cc1ccc(/C=C2\NC(=S)N(CN3CCOCC3)C2=O)cc1
3. [Cl-].[Rh+3].c1ccc(-c2ccnc3c2ccc2c(-c4ccccc4)ccnc23)cc1.c1ccc(-c2ccnc3c2ccc2c(-c4ccccc4)ccnc23)cc1.c1ccc(-c2ccnc3c2ccc2c(-c4ccccc4)ccnc23)cc1
4. COc1ccc(-c2cc(-c3ccc(Nc4ccnc5cc(C(F)(F)F)ccc45)cc3)[nH]c(=O)c2C#N)c2ccccc12
5. O=C(Oc1ccc([N+](=O)[O-])cc1)N1CCN(Cc2cccc(Oc3ccccc3)c2)CC1

["13.2 µM", "> 100 µM", "> 100 µM", "> 100 µM", "> 100 µM"]

Below are some molecules; for each one, tell me its TGI.
1. COC1=CC(=O)C(O)=C(C[C@@]2(C)[C@@H]3CCC[C@H](COC(=O)CCCCCNC(=O)OC(C)(C)C)[C@@]3(C)CC[C@@H]2C)C1=O
2. CC(=O)O[C@H]1[C@@H]2[C@@H]3[C@@H](C[C@H]1C)[C@@H](C)CO[C@@]1(C)CC/C=C(/C)C[C@@H]2O[C@@H]31

1: > 10 µM; 2: > 100 µM

Please supply TGI for each of the following items, keeping them in order.
1. CCOC(OCC)C(CC)[Se]c1ccccc1[N+](=O)[O-] (configuration not stated)
2. C/C(=N\NC(=O)CC(=O)Nc1ccc(Cl)cc1)c1cc2ccccc2oc1=O
3. O=C(CCCCCCCCC(=O)NN1C(=O)/C(=C\c2ccc(O)c(O)c2)SC1c1c(O)ccc2ccccc12)NN1C(=O)C(=Cc2ccc(O)c(O)c2)SC1c1c(O)ccc2ccccc12 (configuration not stated)
4. COc1ccc(C(=O)N2CCN(c3ccc4c(c3)OCC(=O)N4)CC2)cc1
5. CCc1cccc(C(C)C)c1NC(=O)C(=O)C(C(=O)C(=O)OC)c1nc2ccccc2[nH]c1=O (configuration not stated)

["> 63.3 µM", "> 100 µM", "> 37.1 µM", "> 100 µM", "> 100 µM"]

// data source = PubChem BioAssay (NCI)
